Entry source: patent US9656955B2

Assignment: determine reported Ki for the given compounds.
- subject-of-test: human GlyT1c transporter (Homo sapiens (Human), UniProt P48067)
- Sequence (P48067 whole entry): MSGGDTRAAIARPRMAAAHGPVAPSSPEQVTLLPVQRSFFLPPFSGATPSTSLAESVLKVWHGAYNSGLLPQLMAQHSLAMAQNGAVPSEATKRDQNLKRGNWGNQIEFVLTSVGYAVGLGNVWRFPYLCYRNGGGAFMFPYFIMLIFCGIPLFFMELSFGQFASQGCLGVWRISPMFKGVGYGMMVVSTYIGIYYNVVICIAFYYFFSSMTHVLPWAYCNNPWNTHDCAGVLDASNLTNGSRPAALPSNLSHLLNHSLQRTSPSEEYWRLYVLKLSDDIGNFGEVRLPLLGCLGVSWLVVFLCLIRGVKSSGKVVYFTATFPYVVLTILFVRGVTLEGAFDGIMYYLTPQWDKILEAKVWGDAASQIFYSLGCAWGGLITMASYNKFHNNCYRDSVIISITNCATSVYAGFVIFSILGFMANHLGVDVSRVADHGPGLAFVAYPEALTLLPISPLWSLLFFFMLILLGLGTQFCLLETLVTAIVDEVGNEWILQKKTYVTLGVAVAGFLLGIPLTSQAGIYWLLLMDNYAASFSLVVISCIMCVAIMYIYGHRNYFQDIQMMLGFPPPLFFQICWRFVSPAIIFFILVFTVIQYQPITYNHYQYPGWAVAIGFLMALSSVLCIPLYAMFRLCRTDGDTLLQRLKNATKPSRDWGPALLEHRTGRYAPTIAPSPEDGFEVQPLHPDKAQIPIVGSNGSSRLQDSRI
- procedure-text: Radioligand binding assays using recombinant CHO cell membranes expressing human GlyT1
- applied-conditions: radioligand binding, human GlyT1c transporter-expressing CHO cell membranes

Bench note, human GlyT1c transporter (Homo sapiens (Human), UniProt P48067): `Cn1cnc(S(=O)(=O)N2C[C@@H](Nc3cccc(C#N)c3)[C@H](c3ccc(F)cc3)C2)c1` , Ki reads ≤ 10 µM

Bench note, human GlyT1c transporter (Homo sapiens (Human), UniProt P48067): `Cn1cnc(S(=O)(=O)N2C[C@H](NCc3csc(Cl)n3)[C@@H](c3ccccc3)C2)c1` , Ki reads ≤ 10 µM

Bench note, human GlyT1c transporter (Homo sapiens (Human), UniProt P48067): `CCCCNC(=O)[C@@H]1CN(S(=O)(=O)c2cn(C)cn2)C[C@H]1c1ccc(F)cc1` , Ki reads ≤ 0.1 µM

Bench note, human GlyT1c transporter (Homo sapiens (Human), UniProt P48067): `CC(C)OCCCNC(=O)[C@@H]1CN(S(=O)(=O)c2cn(C)cn2)C[C@H]1c1ccc(F)cc1` , Ki reads > 10 µM
